Ref: patent US20070107143A1

- run_description: Hydrogen Peroxide Decomposition Ratio Measurement Protocol
- conditions_used: pH 10, 300 ppm copper sulphate, 0.026M chelant, t = 0
reported_metric: Peroxide % at t = 0 (%)

>  <compound>
O=C(O)CC(NCCNC(CC(=O)O)C(=O)O)C(=O)O (centres unmarked)

>  <value_unit>
%

>  <observed>
3.150

$$$$
>  <compound>
CC(C(=O)O)N(CC(=O)O)CC(=O)O (centres unmarked)

>  <value_unit>
%

>  <observed>
3.498

$$$$
>  <compound>
O=C(O)CN(CCN(CC(=O)O)CC(=O)O)CC(=O)O

>  <value_unit>
%

>  <observed>
3.576

$$$$
>  <compound>
O=P(O)(O)CN(CCN(CP(=O)(O)O)CP(=O)(O)O)CCN(CP(=O)(O)O)CP(=O)(O)O

>  <value_unit>
%

>  <observed>
3.078

$$$$
>  <compound>
CC(O)(P(=O)(O)O)P(=O)(O)O [HEDP, 1-hydroxyethane-1,1-diphosphonic acid]

>  <value_unit>
%

>  <observed>
4.126

$$$$

====

// Peroxide % at t = 30mn lookup, one value per entry
- run_description: Hydrogen Peroxide Decomposition Ratio Measurement Protocol
- conditions_used: pH 10, 300 ppm copper sulphate, 0.026M chelant, t = 30mn
reported_metric: Peroxide % at t = 30mn (%)

>  <compound>
O=C(O)CC(NCCNC(CC(=O)O)C(=O)O)C(=O)O (centres unmarked)

>  <observed>
3.104

$$$$
>  <compound>
CC(O)(P(=O)(O)O)P(=O)(O)O [HEDP, 1-hydroxyethane-1,1-diphosphonic acid]

>  <observed>
2.792

$$$$
>  <compound>
CC(C(=O)O)N(CC(=O)O)CC(=O)O (centres unmarked)

>  <observed>
3.104

$$$$
>  <compound>
O=P(O)(O)CN(CCN(CP(=O)(O)O)CP(=O)(O)O)CCN(CP(=O)(O)O)CP(=O)(O)O

>  <observed>
2.964

$$$$
>  <compound>
O=C(O)CN(CCN(CC(=O)O)CC(=O)O)CC(=O)O

>  <observed>
3.573

$$$$
